# Experiment description: modulators of CIT2-GFP expression in yeast, confirmation, S. cerevisiae, GFP fusion, cherry picks, mother/daughter gates (AID 2274)
# Experimental context: S. cerevisiae CIT2-GFP strain, flow cytometry, 3 h; at 10 µM
The source made the active and inactive calls.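 How the source made its calls: active means GFP response above 150% of the DMSO level; inconclusive means fewer than 70 events counted for a yeast strain; inactive means the rest.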
Entry note: the call must match one of YES (active), NO (inactive)

Reference set (6 entries):
CCOc1ccccc1NC(=O)c1nc(S(=O)(=O)Cc2cccc(C)c2)ncc1Cl = NO
O=C(Nc1cccc(F)c1)c1ccccc1 = NO
O=C(O)C1Sc2[nH]c(=O)sc2C2c3cc(Br)ccc3OC(=O)C12 (configuration not stated) = NO
COc1ccc(-c2cc(C(F)(F)F)nc(N3CCOCC3)n2)cc1OC = NO
CCOCCCNC(=O)/C(C#N)=C/c1ccc([N+](=O)[O-])o1 = YES
Cc1cccc(C)c1NC(=O)C(Cl)C(=O)c1ccccc1 (configuration not stated) = NO

Query block: # outcome recorded in this test, key = `COc1ccccc1N1C(=O)c2cccc3c(C(=O)O)ccc(c23)C1=O`
Result block: NO

Query block: # outcome recorded in this test, key = `Cc1ccc(-c2ccc(/C=N/NC(N)=S)o2)cc1`
Result block: NO

Query block: # outcome recorded in this test, key = CC(C)(C)C(=O)C(Cl)C(=O)Nc1ccccc1 (configuration not stated)
Result block: NO

Query block: # outcome recorded in this test, key = Cc1ccc(N2C(=O)C3C4C=CC(CNC(=S)N5CCN(c6cccc(C)c6)C(C)C5)(O4)C3C2=O)cc1 (configuration not stated)
Result block: NO

Query block: # outcome recorded in this test, key = `Cc1nn(C)c(C)c1N1C(=O)c2cccc3c(Br)ccc(c23)C1=O`
Result block: NO

Query block: # outcome recorded in this test, key = `COc1cccc(N=Nc2ccc(O)c3ncccc23)c1`
Result block: NO

Query block: # outcome recorded in this test, key = `CCOc1cc(C(=O)N2CCN(c3ccc(C(C)=O)cc3)CC2)cc(OCC)c1OCC`
Result block: NO

Query block: # outcome recorded in this test, key = `COc1cccc2c1Oc1ncccc1N(C(=O)CCC(=O)NCc1ccc(C)cc1)C2`
Result block: NO

Query block: # outcome recorded in this test, key = `COc1cc(CCN2C(=O)c3cccc4cccc(c34)C2=O)c(S(=O)(=O)NCCCO)cc1OC`
Result block: NO
